# assayed-system: Cytochrome P450 2C9 (Homo sapiens)
# Sequence (P11712 whole entry): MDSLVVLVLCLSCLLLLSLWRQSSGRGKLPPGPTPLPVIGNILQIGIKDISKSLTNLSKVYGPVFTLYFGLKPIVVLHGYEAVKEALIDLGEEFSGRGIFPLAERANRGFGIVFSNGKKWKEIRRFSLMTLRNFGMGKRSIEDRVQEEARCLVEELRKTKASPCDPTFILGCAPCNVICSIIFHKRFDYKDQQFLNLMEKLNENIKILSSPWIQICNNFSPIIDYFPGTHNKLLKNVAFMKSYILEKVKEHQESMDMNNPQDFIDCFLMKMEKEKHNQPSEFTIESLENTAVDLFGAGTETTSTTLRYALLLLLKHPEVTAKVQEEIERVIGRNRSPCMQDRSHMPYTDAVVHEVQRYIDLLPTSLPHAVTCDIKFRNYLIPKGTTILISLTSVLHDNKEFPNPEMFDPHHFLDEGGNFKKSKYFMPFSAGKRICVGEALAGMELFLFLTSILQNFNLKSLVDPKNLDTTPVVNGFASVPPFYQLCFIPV
measure-name: IC50

Query: Consider the molecule CC[C@H](N)C(=O)N[C@H](C#N)Cc1ccc(-c2ccccc2)cc1 . State its measured IC50.
Response: > 20 µM

---

# method: Metabolic stability in rat liver microsomes after 15 min
# Type: ADME, Microsome
# experimental-parameters: read-out: Stability
remaining at 0.25 h strictly under 70% means Condition met; at 70% or over means Condition not met.

Examples from the recorded data:
N#C[C@H](Cc1ccccc1)NC(=O)[C@@H]1CCCN1: Condition met
CC[C@H](N)C(=O)N[C@H](C#N)Cc1ccccc1: Condition not met
N#CC(Cc1ccccc1)NC(=O)[C@@H](N)Cc1ccccc1 (stereo in doubt; 8): Condition met

Moving on to the next compound.
Query: In plain terms, does CC[C@H](N)C(=O)N[C@H](C#N)CCc1ccccc1 come in under 70% for remaining at 0.25 h?
Response: Condition not met

---

What follows is a collection of IC50 values obtained with Dipeptidyl peptidase 1 (Homo sapiens, UniProt P53634).
Sequence (P53634 25-134 limits assumed): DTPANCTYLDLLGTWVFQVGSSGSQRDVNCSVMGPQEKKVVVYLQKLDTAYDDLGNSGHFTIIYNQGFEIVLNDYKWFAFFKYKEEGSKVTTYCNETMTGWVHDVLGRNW
Sequence (P53634 231-394 limits assumed): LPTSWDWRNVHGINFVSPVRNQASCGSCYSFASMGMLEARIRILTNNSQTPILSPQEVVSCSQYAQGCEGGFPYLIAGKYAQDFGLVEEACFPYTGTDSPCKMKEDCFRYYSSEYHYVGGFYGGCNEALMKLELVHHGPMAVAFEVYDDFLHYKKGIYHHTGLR
Sequence (P53634 395-463 limits assumed): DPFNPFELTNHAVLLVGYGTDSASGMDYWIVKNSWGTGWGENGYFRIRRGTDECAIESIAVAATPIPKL
Numbers only, in µM.

CC[C@H](N)C(=O)N[C@H](C#N)Cc1ccccc1: 0.172

Now look at this one.
Query: Consider the compound N#C[C@H](Cc1ccccc1)NC(=O)CN . State its measured IC50.
Response: 4.79

Ref: ChEMBL document CHEMBL1138912
